Tested on: HT-29
protocolDescription: NCI tumour cell line growth inhibition, 48 h
Calls of active or inactive are those of the source. Rule as the data show it: active = GI50 up to about 1.1 µM and inactive = higher.
Select the matching outcome among label 1 = active, label 0 = inactive

Each compound tested received a call. Report the one for C=C[C@H]1C=Cc2c(OC)cccc2[C@@H]1COP1(=S)NC(C)C(c2ccccc2)O1 (stereo partly drawn) .
label 0

Same lookup for COc1ccc(-c2cc(-c3ccccc3)n(C3OC(COC(C)=O)C(OC(C)=O)C(OC(C)=O)C3OC(C)=O)c(=S)c2C#N)cc1 (stereo not drawn) , please.
label 0

Same lookup for CCN(CC)CCCN(c1cc(OC)cc2nccnc12)S(=O)(=O)c1ccc(C)cc1 , please.
label 0

Same lookup for Cc1n(Cc2ccccc2)c2c([n+]1C)C(=O)c1ccccc1C2=O , please.
label 1

Same lookup for Cc1cc(C)nc(/C(=N\NC(N)=O)C(=O)Nc2nc3ccc(C)cc3s2)c1 , please.
label 0

Same lookup for O=C1C=C(Nc2cccnc2)c2ccccc2/C1=N/O , please.
label 0

---
Each compound tested received a call. Report the one for CCN(CC)Cc1cc(Nc2c3ccccc3nc3c4ccccc4n(C)c23)ccc1O .
label 0

Same lookup for CCOC(OCC)C(CC)[Se]c1ccccc1 (stereo not drawn) , please.
label 0

---

Tested on: PC-3
protocolDescription: NCI tumour cell line growth inhibition, 48 h
Active and inactive are the calls of the source. No stated cut-off is given here; in the data, active = GI50 up to about 1.1 µM and inactive = higher.
# GI50 values compiled below

// below: answered molecules
# get_value(readout='GI50', item= CC(O)CCC(=O)c1ccoc1 (stereo unspecified) )
6120 µM (inactive)

Same lookup for Cc1n[nH]c(C(F)(F)F)c1/N=N/N1CCOCC1 , please.
7.16 µM (inactive)

Same lookup for O=C1C=CC2(O[C@H](C3CCCCC3)[C@@H](C3CCCCC3)O2)C(SC(=O)c2ccccc2)C1 (stereo partly specified) , please.
2.23 µM (inactive)

Same lookup for Clc1ncnc2c1nc(C#Cc1ccccc1)n2C1CCCCO1 (stereo unspecified) , please.
3.27 µM (inactive)

Same lookup for Nc1nc2c(C(=O)NCc3cccs3)nnn2c2cccc(Cl)c12 , please.
54.5 µM (inactive)

Same lookup for CSc1nc(SC)c2c(C)cn(C3OC(C)C(O)C(O)C3O)c2n1 (stereo unspecified) , please.
43.9 µM (inactive)

Same lookup for COc1ccc(S(=O)(=O)O)cc1NS(=O)(=O)c1ccc(C)cc1 , please.
> 100 µM (inactive)

Same lookup for O=C(O)C[C@@H]1[C@@H](O)[C@@H](O)CN2C(=O)c3ccccc3[C@H]12 , please.
> 100 µM (inactive)

Same lookup for Nc1ncnc2c1ncn2[C@H]1C=C[C@@H](NO)C1 , please.
> 100 µM (inactive)

Same lookup for c1ccc([P+](CCN2Cc3ccccc3C2)(c2ccccc2)c2ccccc2)cc1 , please.
4.8 µM (inactive)

# input for lookup
# get_value(readout='GI50', item= CC1=C(C#N)C(=C(C#N)C#N)OC1(C)Cc1ccccc1 (stereo unspecified) )
36.2 µM (inactive)

---

Tested on: UACC-257
protocolDescription: NCI tumour cell line growth inhibition, 48 h
Activity calls are given as the source filed them. Cut-off read from the data, not from the text of the source: active = GI50 up to about 1.1 µM and inactive = higher.
readoutLabel: GI50

# get_value(readout='GI50', item= O=C1c2cccc3cccc(c23)C(=O)N1CCCN1CCN(CCCN2C(=O)c3cccc4cccc(c34)C2=O)CC1 )
> 100 µM (inactive)

---
# get_value(readout='GI50', item= CCOc1cc(CCNC)c2c(ccc3ccc(OC)c(O)c32)c1OC )
13.1 µM (inactive)

Same lookup for CC1(C)SCc2nc3ncccc3n21 , please.
> 100 µM (inactive)

Values were extracted from ChEMBL document CHEMBL1201862.
